# Tested on: Klebsiella pneumoniae
# testSummary: Antibacterial activity against Klebsiella pneumoniae after 24 hrs by twofold serial dilution method
# Assay type: functional
resultType: MIC (µg/mL)

# smilesInput, resultType, assayResult
measured = [
    ("COc1ccc([C@H]2N[C@@H](c3ccc(OC)cc3)C3CCCC2/C3=N\\NC(=O)c2ccncc2)cc1", "MIC", 200),
    ("O=C(N/N=C1\\C2CCCC1[C@H](c1ccc(Cl)cc1)N[C@@H]2c1ccc(Cl)cc1)c1ccncc1", "MIC", 100),
    ("CC1(C)S[C@@H]2[C@H](NC(=O)Cc3ccccc3)C(=O)N2[C@H]1C(=O)O", "MIC", 12.5),
    ("CN[C@@H]1[C@H](O[C@H]2[C@H](O[C@H]3[C@H](O)[C@@H](O)[C@H](N=C(N)N)[C@@H](O)[C@@H]3N=C(N)N)O[C@@H](C)[C@]2(O)C=O)O[C@@H](CO)[C@H](O)[C@H]1O", "MIC", 50),
    ("O=C(N/N=C1\\C2CCCC1[C@H](c1cccc(Cl)c1)N[C@@H]2c1cccc(Cl)c1)c1ccncc1", "MIC", 50),
    ("COc1cccc([C@H]2N[C@@H](c3cccc(OC)c3)C3CCCC2/C3=N\\NC(=O)c2ccncc2)c1", "MIC", 100),
]
